B1: CPEB3 Ribozyme (parent)
chain: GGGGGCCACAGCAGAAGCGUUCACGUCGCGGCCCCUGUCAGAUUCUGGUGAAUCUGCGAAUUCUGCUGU

Variants of: B1
Experiment: self-cleavage, relative activity (ratio to wild type); higher = more cleavage; co-transcriptional
OBSERVATION TYPE: self-cleavage

{"VARIANT NAME": "A23G A52G", "OBSERVATION TYPE": "self-cleavage", "VALUE REPORTED": 1.02}
{"VARIANT NAME": "A13U C24A", "OBSERVATION TYPE": "self-cleavage", "VALUE REPORTED": 0.301}
{"VARIANT NAME": "G1C C9G", "OBSERVATION TYPE": "self-cleavage", "VALUE REPORTED": 0.203}
{"VARIANT NAME": "C7A C24A", "OBSERVATION TYPE": "self-cleavage", "VALUE REPORTED": 0.161}
{"VARIANT NAME": "G5C U67A", "OBSERVATION TYPE": "self-cleavage", "VALUE REPORTED": 0.338}
{"VARIANT NAME": "G31A G68A", "OBSERVATION TYPE": "self-cleavage", "VALUE REPORTED": 1.03}
{"VARIANT NAME": "G17A G41A", "OBSERVATION TYPE": "self-cleavage", "VALUE REPORTED": 0.133}
{"VARIANT NAME": "C45A G56U", "OBSERVATION TYPE": "self-cleavage", "VALUE REPORTED": 0.695}
{"VARIANT NAME": "U43A U46C", "OBSERVATION TYPE": "self-cleavage", "VALUE REPORTED": 0.952}
{"VARIANT NAME": "U36C G68A", "OBSERVATION TYPE": "self-cleavage", "VALUE REPORTED": 0.932}
{"VARIANT NAME": "A13C G58U", "OBSERVATION TYPE": "self-cleavage", "VALUE REPORTED": 0.933}
{"VARIANT NAME": "A16C G41A", "OBSERVATION TYPE": "self-cleavage", "VALUE REPORTED": 0.129}
{"VARIANT NAME": "C18G C27G", "OBSERVATION TYPE": "self-cleavage", "VALUE REPORTED": 0.224}
{"VARIANT NAME": "C22U G37C", "OBSERVATION TYPE": "self-cleavage", "VALUE REPORTED": 0.216}
{"VARIANT NAME": "G17U C34G", "OBSERVATION TYPE": "self-cleavage", "VALUE REPORTED": 0.177}
{"VARIANT NAME": "U44A U64A", "OBSERVATION TYPE": "self-cleavage", "VALUE REPORTED": 0.843}
{"VARIANT NAME": "A40U G50C", "OBSERVATION TYPE": "self-cleavage", "VALUE REPORTED": 0.643}
{"VARIANT NAME": "C33U A51C", "OBSERVATION TYPE": "self-cleavage", "VALUE REPORTED": 0.948}
{"VARIANT NAME": "U21A U26C", "OBSERVATION TYPE": "self-cleavage", "VALUE REPORTED": 0.985}
{"VARIANT NAME": "G4A C12A", "OBSERVATION TYPE": "self-cleavage", "VALUE REPORTED": 0.477}
{"VARIANT NAME": "G17A C22A", "OBSERVATION TYPE": "self-cleavage", "VALUE REPORTED": 0.157}
{"VARIANT NAME": "U20G U61C", "OBSERVATION TYPE": "self-cleavage", "VALUE REPORTED": 0.19}
